Biological target: recombinant α-syn fibrils (Homo sapiens, UniProt P37840)
Test: biochemical
Listed molecules paired with reported Ki
Field format: number, assumed nM, no unit text.

>>> df
                     smiles_code                        measurement_target  measured_value
0  CNc1ccc(-c2nc3ccc(O)cc3s2)cc1  recombinant α-syn fibrils (Homo sapiens, UniProt P37840)             116

Ki for O=C(O)c1cc(/N=N/c2ccc(-c3ccc(/N=N/c4ccc(O)c(C(=O)O)c4)cc3)cc2)ccc1O ? 432

---

Biological target: Human PD brain homogenate (insoluble fraction) (Homo sapiens)
Conditions: read-out: Ki, Human PD brain homogenate; 200 nM [125I]SIL23, 10 µg insoluble fraction/150 µl; 95% confidence interval in parentheses
parameter measured: pKi
Keep in mind that pKi stands for -log10 of concentration in molar terms.

pKi for CN(C)c1ncc(/C=C/c2nc3ccc(OCCF)cc3o2)s1 [BF227] ? 6.86
